assay: AUC (0 to 24 hrs) in monkey at 0.32 mg/kg, po by cassette assay; format: ADME, organism-based, Macaca mulatta, Plasma; design: time < 24 hr, dose 0.32 mg/kg, route oral; settings: rhesus monkey, plasma
Measured attribute: AUC(0-t) at 24 h (ng·h/mL)
Kindly answer with a numeric value in ng·h/mL, unit omitted.

Lab note: CC(C)Oc1cc(-c2ccc(CCNC[C@H](O)c3cccc(Cl)c3)cc2)ccc1C(=O)O gave AUC(0-t) at 24 h of 4980

* * *

test: Total clearance in monkey at 0.32 mg/kg, iv by cassette assay; type: ADME, organism-based, Macaca mulatta; set-up: dose 0.32 mg/kg, route intravenous; details: rhesus monkey, in vivo
Measured attribute: clearance (mL/min/kg)
Kindly answer with a numeric value in mL/min/kg, unit omitted.

Lab note: CC(C)Oc1cc(-c2ccc(CCNC[C@H](O)c3cccc(Cl)c3)cc2)ccc1C(=O)O gave clearance of 0.9

* * *

assay: AUC (0 to 24 hrs) in rat at 1.0 mg/kg, po by cassette assay; format: ADME, organism-based; parameters: time < 24 hr, dose 1 mg/kg, route oral; conditions: plasma
Measured attribute: AUC(0-t) at 24 h

Lab note: CCOC(=O)COc1ccc2c(c1)C[C@@H](NC[C@H](O)c1cccc(Cl)c1)CCC2 gave AUC(0-t) at 24 h of 83 ng·h/mL

* * *

assay: AUC (0 to 24 hrs) in dog at 0.1 mg/kg, po by cassette assay; type: ADME, organism-based, Canis lupus familiaris; design: time < 24 hr, dose 0.1 mg/kg, route oral; conditions: plasma
Measured attribute: AUC(0-t) at 24 h (ng·h/mL)
Kindly answer with a numeric value in ng·h/mL, unit omitted.

Lab note: CC(C)Oc1cc(-c2ccc(CCNC[C@H](O)c3cccc(Cl)c3)cc2)ccc1C(=O)O gave AUC(0-t) at 24 h of 149

* * *

Assignment: determine reported AUC(0-t) at 24 h for the given compounds.
test: AUC (0 to 24 hrs) in rat at 0.32 mg/kg, po by cassette assay; type: ADME, organism-based; design: time < 24 hr, dose 0.32 mg/kg, route oral; conditions: plasma
Kindly answer with a numeric value in ng·h/mL, unit omitted.

Lab note: CC(C)Oc1cc(-c2ccc(CCNC[C@H](O)c3cccc(Cl)c3)cc2)ccc1C(=O)O gave AUC(0-t) at 24 h of 700

Lab note: CC(C)Oc1cc(-c2ccc(CCNC[C@H](O)c3ccccc3)cc2)ccc1C(=O)O gave AUC(0-t) at 24 h of 565

* * *

assay: Intrinsic clearance in dog liver microsome; format: ADME, Canis lupus familiaris; settings: liver microsomes
Measured attribute: CLint scaled (mL/min/kg)
Kindly answer with a numeric value in mL/min/kg, unit omitted.

Lab note: CCOC(=O)COc1ccc2c(c1)C[C@@H](NC[C@H](O)c1cccc(Cl)c1)CCC2 gave CLint scaled of 35.4

* * *

test: Oral bioavailability in dog; type: ADME, organism-based, Canis lupus familiaris; conditions: in vivo
Measured attribute: bioavailability (%)
Kindly answer with a numeric value in %, unit omitted.

Lab note: O=S(=O)(Nc1ccc(CCNC[C@H](O)c2cccnc2)cc1)c1ccc(-c2nc(-c3ccc(C(F)(F)F)cc3)cs2)cc1 gave bioavailability of 27

* * *

assay: Bioavailability in rat at 1.0 mg/kg, po by cassette assay; assay type: ADME, organism-based; details: in vivo
Measured attribute: bioavailability (%)
Kindly answer with a numeric value in %, unit omitted.

Lab note: CCOC(=O)COc1ccc2c(c1)C[C@@H](NC[C@H](O)c1cccc(Cl)c1)CCC2 gave bioavailability of 29

* * *

assay: Terminal half life in dog at 0.83 mg/kg, iv by cassette assay; format: ADME, organism-based, Canis lupus familiaris; set-up: dose 0.83 mg/kg, route intravenous; settings: in vivo, read-out: beta t1/2 (converted)
Measured attribute: half-life (h)
Kindly answer with a numeric value in h, unit omitted.

Lab note: CCOC(=O)COc1ccc2c(c1)C[C@@H](NC[C@H](O)c1cccc(Cl)c1)CCC2 gave half-life of 1.63

* * *

assay: Terminal half life in dog at 0.1 mg/kg, iv by cassette assay; assay type: ADME, organism-based, Canis lupus familiaris; set-up: dose 0.1 mg/kg, route intravenous; settings: in vivo, read-out: beta t1/2 (converted)
Assignment: determine reported half-life for the given compounds.
Kindly answer with a numeric value in h, unit omitted.

Lab note: CC(C)Oc1cc(-c2ccc(CCNC[C@H](O)c3ccccc3)cc2)ccc1C(=O)O gave half-life of 14.5

Lab note: CC(C)Oc1cc(-c2ccc(CCNC[C@H](O)c3cccc(Cl)c3)cc2)ccc1C(=O)O gave half-life of 9.9

* * *

assay: in vivo; conditions: dog, po, 1 mg/mL
Measured attribute: bioavailability (%)
Kindly answer with a numeric value in %, unit omitted.

Lab note: O=C(O)c1ccc(Oc2ccc(CCNC[C@H](O)c3cccc(Cl)c3)cc2)cc1 gave bioavailability of 40

* * *

Assignment: determine reported half-life for the given molecules.
assay: Terminal half life in rat at 0.32 mg/kg, iv by cassette assay; type: ADME, organism-based; design: dose 0.32 mg/kg, route intravenous; settings: in vivo, read-out: beta t1/2 (converted)
Kindly answer with a numeric value in min, unit omitted.

Lab note: CC(C)Oc1cc(-c2ccc(CCNC[C@H](O)c3ccccc3)cc2)ccc1C(=O)O gave half-life of 570

Lab note: CC(C)Oc1cc(-c2ccc(CCNC[C@H](O)c3cccc(Cl)c3)cc2)ccc1C(=O)O gave half-life of 288

* * *

experiment: Bioavailability in rat at 0.32 mg/kg, po by cassette assay; type: ADME, organism-based; settings: in vivo
Assignment: determine reported bioavailability for the given compounds.
Kindly answer with a numeric value in %, unit omitted.

Lab note: CC(C)Oc1cc(-c2ccc(CCNC[C@H](O)c3ccccc3)cc2)ccc1C(=O)O gave bioavailability of 80

Lab note: CC(C)Oc1cc(-c2ccc(CCNC[C@H](O)c3cccc(Cl)c3)cc2)ccc1C(=O)O gave bioavailability of 61

* * *

test: Terminal half life in rat at 0.83 mg/kg, iv by cassette assay; format: ADME, organism-based; design: dose 0.83 mg/kg, route intravenous; conditions: in vivo, read-out: beta t1/2 (converted)
Measured attribute: half-life (min)
Kindly answer with a numeric value in min, unit omitted.

Lab note: CCOC(=O)COc1ccc2c(c1)C[C@@H](NC[C@H](O)c1cccc(Cl)c1)CCC2 gave half-life of 18

* * *

assay: AUC (0 to 24 hrs) in dog at 2.0 mg/kg, po by cassette assay; assay type: ADME, organism-based, Canis lupus familiaris; parameters: time < 24 hr, dose 2 mg/kg, route oral; settings: plasma
Measured attribute: AUC(0-t) at 24 h
Please provide the amount together with its unit, number first.

Lab note: CC(C)Oc1cc(-c2ccc(CCNC[C@H](O)c3ccccc3)cc2)ccc1C(=O)O gave AUC(0-t) at 24 h of 438 ng·h/mL

* * *

assay: AUC (0 to 24 hrs) in monkey at 1.0 mg/kg, po by cassette assay; assay type: ADME, organism-based, Macaca mulatta; set-up: time < 24 hr, dose 1 mg/kg, route oral; conditions: rhesus monkey, plasma
Measured attribute: AUC(0-t) at 24 h (ng·h/mL)
Kindly answer with a numeric value in ng·h/mL, unit omitted.

Lab note: CCOC(=O)COc1ccc2c(c1)C[C@@H](NC[C@H](O)c1cccc(Cl)c1)CCC2 gave AUC(0-t) at 24 h of 398

* * *

assay: Bioavailability in monkey at 1.0 mg/kg, po by cassette assay; format: ADME, organism-based, Macaca mulatta; conditions: rhesus monkey, in vivo
Measured attribute: bioavailability (%)
Kindly answer with a numeric value in %, unit omitted.

Lab note: CCOC(=O)COc1ccc2c(c1)C[C@@H](NC[C@H](O)c1cccc(Cl)c1)CCC2 gave bioavailability of 35

* * *

experiment: Total clearance in dog at 0.1 mg/kg, iv by cassette assay; type: ADME, organism-based, Canis lupus familiaris; set-up: dose 0.1 mg/kg, route intravenous; conditions: in vivo
Assignment: determine reported clearance for the given molecules.
Kindly answer with a numeric value in mL/min/kg, unit omitted.

Lab note: CC(C)Oc1cc(-c2ccc(CCNC[C@H](O)c3ccccc3)cc2)ccc1C(=O)O gave clearance of 4.8

Lab note: CC(C)Oc1cc(-c2ccc(CCNC[C@H](O)c3cccc(Cl)c3)cc2)ccc1C(=O)O gave clearance of 4.9

* * *

Assignment: determine reported Cmax for the given compounds.
test: Cmax in rat at 0.32 mg/kg, po by cassette assay; assay type: ADME, organism-based; design: dose 0.32 mg/kg, route oral; details: in vivo
Kindly answer with a numeric value in µg/mL, unit omitted.

Lab note: CC(C)Oc1cc(-c2ccc(CCNC[C@H](O)c3ccccc3)cc2)ccc1C(=O)O gave Cmax of 0.0947

Lab note: CC(C)Oc1cc(-c2ccc(CCNC[C@H](O)c3cccc(Cl)c3)cc2)ccc1C(=O)O gave Cmax of 0.146
